Organism: Rattus norvegicus
Assay: DrugMatrix - Regimen: Daily Repeat
Type: toxicity, organism-based, Sprague-Dawley
Design: regimen Daily Repeat, gender Male, age 6-8 weeks
Conditions: in vivo, po, 0 mg/kg, 120 h, tissue Blood, route oral GAVAGE, dose level Control, time 5 day, vehicle 100 % SALINE
OBSERVABLE: MEAN CORPUSCULAR HEMOGLOBIN (pg)
Just the number please, in pg, no unit attached.

Problem: Recorded MEAN CORPUSCULAR HEMOGLOBIN of CCCc1nn(C)c2c(=O)[nH]c(-c3cc(S(=O)(=O)N4CCN(C)CC4)ccc3OCC)nc12 , please.
Solution: 23.92

Problem: Recorded MEAN CORPUSCULAR HEMOGLOBIN of Oc1ccccc1O [CATECHOL] , please.
Solution: 24.03

Problem: Recorded MEAN CORPUSCULAR HEMOGLOBIN of CC(=O)OCC(CCn1cnc2cnc(N)nc21)COC(C)=O [FAMCICLOVIR] , please.
Solution: 23.92

Problem: Recorded MEAN CORPUSCULAR HEMOGLOBIN of Cc1cc(CC(=O)O)n(C)c1C(=O)c1ccc(Cl)cc1 [ZOMEPIRAC] , please.
Solution: 24.03

* * *

Organism: Rattus norvegicus
Assay: DrugMatrix - Regimen: Daily Repeat
Format: toxicity, organism-based, Sprague-Dawley
Design: regimen Daily Repeat, gender Male, age 6-8 weeks
Conditions: in vivo, po, 100 mg/kg, 72 h, tissue Blood, route oral GAVAGE, dose level Low, time 3 day, vehicle .5 % CMC
OBSERVABLE: EOSINOPHIL (%)
Just the number please, in %, no unit attached.

Problem: Recorded EOSINOPHIL of CC=Cc1ccc(O)c(OC)c1 , please.
Solution: 0

Problem: Recorded EOSINOPHIL of CC[C@]1(O)CC[C@H]2[C@@H]3CCC4=CCCC[C@@H]4[C@H]3CC[C@@]21C , please.
Solution: 0.63

Problem: Recorded EOSINOPHIL of C#C[C@]1(O)CC[C@H]2[C@@H]3CCC4=Cc5oncc5C[C@]4(C)[C@H]3CC[C@@]21C , please.
Solution: 0.33

Problem: Recorded EOSINOPHIL of Nc1nc2c(c(=O)[nH]1)N(C=O)C(CNc1ccc(C(=O)N[C@@H](CCC(=O)O)C(=O)O)cc1)CN2 (some centres undefined) , please.
Solution: 0

* * *

Organism: Rattus norvegicus
Experiment: DrugMatrix - Regimen: Daily Repeat
Type: toxicity, organism-based, Sprague-Dawley
Set-up: regimen Daily Repeat, gender Male, age 6-8 weeks
Conditions: in vivo, po, 0 mg/kg, 72 h, tissue Plasma, route oral GAVAGE, dose level Control, time 3 day, vehicle 100 % SALINE
OBSERVABLE: TOTAL PROTEIN

Problem: Recorded TOTAL PROTEIN of CC(=O)OCC(CCn1cnc2cnc(N)nc21)COC(C)=O [FAMCICLOVIR] , please.
Solution: 5.98 G/DL

Problem: Recorded TOTAL PROTEIN of Oc1ccccc1O [CATECHOL] , please.
Solution: 6.02 G/DL

Problem: Recorded TOTAL PROTEIN of Cc1cc(CC(=O)O)n(C)c1C(=O)c1ccc(Cl)cc1 [ZOMEPIRAC] , please.
Solution: 6.02 G/DL

Problem: Recorded TOTAL PROTEIN of CCCc1nn(C)c2c(=O)[nH]c(-c3cc(S(=O)(=O)N4CCN(C)CC4)ccc3OCC)nc12 , please.
Solution: 5.98 G/DL
